Numbers sourced from patent US9447028B2.

So I've got a bunch of compounds here, and I need their RARγ activity ratio values.
target: RARγ (Homo sapiens, UniProt P13631); construct: gal4 (fusion partner); expressed in transfected cells; host or cells: COS-7; test: Transactivation assay for RAR gamma (gal4-RAR fusion, luciferase reporter, COS-7 cells); assay type: cell-based; settings: ratio of test compound EC50 to that of atRA; inactive = no agonist action at the highest concentration tested
The reply should be a number, written without any unit.

Input line: What value of RARγ activity ratio has been recorded for this entry: `CCC(CC)Oc1cc(C(=O)Nc2ccc(C(=O)O)cc2)cc(Cl)c1OC`
Output line: 375

Input line: What value of RARγ activity ratio has been recorded for this entry: `CCC(CC)Oc1cc(C(=O)Nc2ccc(C(=O)O)c(C)c2)cc(Cl)c1OC`
Output line: 833

Input line: What value of RARγ activity ratio has been recorded for this entry: `O=C(O)c1ccc(NC(=O)c2cc(Cl)c(OC3CCC3)c(OC3CCC3)c2)cc1`
Output line: 1059

Input line: What value of RARγ activity ratio has been recorded for this entry: `CCOc1cc(C(=O)Nc2ccc(C(=O)O)cc2)cc(OC(CC)CC)c1Cl`
Output line: 22759

Input line: What value of RARγ activity ratio has been recorded for this entry: `COc1c(OC(C)C)cc(C(=O)Nc2ccc(C(=O)O)c(C)c2)cc1OC(C)C`
Output line: 6429

Input line: What value of RARγ activity ratio has been recorded for this entry: `CCOc1cc(C(=O)Nc2ccc(C(=O)O)cc2)cc(OC(C)C)c1OCC`
Output line: 960

Input line: What value of RARγ activity ratio has been recorded for this entry: `Cc1cc(NC(=O)c2cc(Cl)c(Cl)c(OC(C)C)c2)ccc1C(=O)O`
Output line: 11093

Input line: What value of RARγ activity ratio has been recorded for this entry: `COc1c(Cl)cc(C(=O)Nc2ccc(C(=O)O)c(C)c2)cc1OC(C)C`
Output line: 2394

* * *

Target: RARα (Homo sapiens, UniProt P10276)
Construct: gal4 (fusion partner); expressed in transfected cells; host or cells: COS-7
Sequence (P10276 183-417 limits assumed): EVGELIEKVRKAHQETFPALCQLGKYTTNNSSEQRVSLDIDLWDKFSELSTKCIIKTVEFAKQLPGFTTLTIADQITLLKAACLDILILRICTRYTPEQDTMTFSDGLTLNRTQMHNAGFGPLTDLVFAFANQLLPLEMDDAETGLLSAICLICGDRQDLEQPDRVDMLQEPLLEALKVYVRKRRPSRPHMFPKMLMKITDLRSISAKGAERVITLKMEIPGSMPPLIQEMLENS
Assay: Transactivation assay for RAR alpha (gal4-RAR fusion, luciferase reporter, COS-7 cells)
Format: cell-based
Conditions: fold-selectivity for RARα over RARβ
property.measured: RARα/RARβ ratio (*)
The reply should be a number, written without any unit.

Input line: What value of RARα/RARβ ratio (*) has been recorded for this entry: `O=C(O)c1ccc(NC(=O)c2cc(Cl)c(OC3CCC3)c(C(F)(F)F)c2)cc1`
Output line: 31

Input line: What value of RARα/RARβ ratio (*) has been recorded for this entry: `O=C(O)c1ccc(NC(=O)c2cc(Cl)c(OCc3ccccc3)c(OCc3ccccc3)c2)cc1`
Output line: 39

Input line: What value of RARα/RARβ ratio (*) has been recorded for this entry: `CC(C)(C)Oc1cc(C(=O)Nc2ccc(C(=O)O)cc2)cc(Cl)c1OC(C)(C)C`
Output line: 44

Input line: What value of RARα/RARβ ratio (*) has been recorded for this entry: `CC(C)Oc1cc(C(=O)Nc2ccc(C(=O)O)c(O)c2)cc(Cl)c1OC(C)C`
Output line: 135

* * *

biological target: RARβ (Homo sapiens); construct: gal4 (fusion partner); expressed in transfected cells; host or cells: COS-7; test: Transactivation assay for RAR beta (gal4-RAR fusion, luciferase reporter, COS-7 cells); assay type: cell-based; details: ratio of test compound EC50 to that of atRA; inactive = no agonist action at the highest concentration tested
Sequence (P10826 183-417 limits assumed, species assumed): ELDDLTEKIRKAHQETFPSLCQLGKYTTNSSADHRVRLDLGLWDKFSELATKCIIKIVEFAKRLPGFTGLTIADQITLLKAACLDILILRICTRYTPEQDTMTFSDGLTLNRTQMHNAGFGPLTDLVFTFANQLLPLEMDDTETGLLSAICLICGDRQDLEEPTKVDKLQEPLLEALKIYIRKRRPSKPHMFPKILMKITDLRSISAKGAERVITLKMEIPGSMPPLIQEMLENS
property.measured: RARβ activity ratio
The reply should be a number, written without any unit.

Input line: What value of RARβ activity ratio has been recorded for this entry: `CCOc1cc(C(=O)Nc2ccc(C(=O)O)c(F)c2)cc(OC(CC)CC)c1Cl`
Output line: 208

Input line: What value of RARβ activity ratio has been recorded for this entry: CCOc1ccc(C(=O)Nc2ccc(C(=O)O)cc2)cc1C(F)(F)F [XXX-01, reference compound]
Output line: 2570

Input line: What value of RARβ activity ratio has been recorded for this entry: `COc1c(Cl)cc(C(=O)Nc2ccc(C(=O)O)cc2)cc1Cl`
Output line: 9525

Input line: What value of RARβ activity ratio has been recorded for this entry: `COc1cc(C(=O)Nc2ccc(C(=O)O)cc2)cc(Cl)c1OC1CCCC1`
Output line: 1054

Input line: What value of RARβ activity ratio has been recorded for this entry: `CCOc1cc(C(=O)Nc2ccc(C(=O)O)cc2)cc(Cl)c1OC(C)C`
Output line: 7

Input line: What value of RARβ activity ratio has been recorded for this entry: `COc1c(Cl)cc(C(=O)Nc2ccc(C(=O)O)cc2)cc1C(F)(F)F`
Output line: 2620

Input line: What value of RARβ activity ratio has been recorded for this entry: `COc1c(Cl)cc(C(=O)Nc2ccc(C(=O)O)c(F)c2)cc1OC(C)C`
Output line: 4082

Input line: What value of RARβ activity ratio has been recorded for this entry: `CCOc1c(Cl)cc(C(=O)Nc2ccc(C(=O)O)c(Cl)c2)cc1Cl`
Output line: 9660

Input line: What value of RARβ activity ratio has been recorded for this entry: `CC(C)Oc1cc(C(=O)Nc2ccc(C(=O)O)cc2)cc(C(F)(F)F)c1OC(C)C`
Output line: 142

Input line: What value of RARβ activity ratio has been recorded for this entry: `CCOc1c(Br)cc(C(=O)Nc2ccc(C(=O)O)cc2)cc1C(F)(F)F`
Output line: 369

Input line: What value of RARβ activity ratio has been recorded for this entry: `CC(C)Oc1cc(C(=O)Nc2ccc(C(=O)O)c(O)c2)cc(OC(C)C)c1Br`
Output line: 1583

Input line: What value of RARβ activity ratio has been recorded for this entry: `O=C(O)c1ccc(NC(=O)c2cc(Cl)c(OCc3ccncc3)c(Cl)c2)cc1`
Output line: 1300

Input line: What value of RARβ activity ratio has been recorded for this entry: `COc1cc(C(=O)Nc2ccc(C(=O)O)cc2)cc(Cl)c1OC(C)C`
Output line: 90

Input line: What value of RARβ activity ratio has been recorded for this entry: `Cc1cc(NC(=O)c2cc(Cl)c(OC(C)C)c(C(F)(F)F)c2)ccc1C(=O)O`
Output line: 60

Input line: What value of RARβ activity ratio has been recorded for this entry: `CC(C)Oc1c(Cl)cc(C(=O)Nc2ccc(C(=O)O)c(F)c2)cc1C(F)(F)F`
Output line: 505

Input line: What value of RARβ activity ratio has been recorded for this entry: `CCOc1c(Cl)cc(C(=O)Nc2ccc(C(=O)O)cc2)cc1OCC1CC1`
Output line: 510

Input line: What value of RARβ activity ratio has been recorded for this entry: `Cc1cc(NC(=O)c2cc(OC(C)C)c(Cl)c(OC(C)C)c2)ccc1C(=O)O`
Output line: 273

* * *

So I've got a bunch of compounds here, and I need their RARγ activity ratio values.
Molecular target: RARγ (Homo sapiens, UniProt P13631)
Construct: gal4 (fusion partner); expressed in transfected cells; host or cells: COS-7
Sequence (P13631 185-419 limits assumed): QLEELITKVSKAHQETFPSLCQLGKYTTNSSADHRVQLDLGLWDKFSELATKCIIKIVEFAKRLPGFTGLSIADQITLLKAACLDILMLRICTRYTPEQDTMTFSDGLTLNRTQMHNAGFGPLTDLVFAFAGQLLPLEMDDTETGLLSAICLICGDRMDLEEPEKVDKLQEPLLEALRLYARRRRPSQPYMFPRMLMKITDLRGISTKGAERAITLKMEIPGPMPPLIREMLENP
Assay: Transactivation assay for RAR gamma (gal4-RAR fusion, luciferase reporter, COS-7 cells)
Type: cell-based
Conditions: ratio of test compound EC50 to that of atRA; inactive = no agonist action at the highest concentration tested

Input line: What value of RARγ activity ratio has been recorded for this entry: `CCOc1c(OC2CCCC2)cc(C(=O)Nc2ccc(C(=O)O)cc2)cc1OC1CCCC1`
Output line: 550

Input line: What value of RARγ activity ratio has been recorded for this entry: `CCOc1c(F)cc(C(=O)Nc2ccc(C(=O)O)cc2)cc1F`
Output line: 220

Input line: What value of RARγ activity ratio has been recorded for this entry: CC1=C(/C=C/C(C)=C/C=C/C(C)=C/C(=O)O)C(C)(C)CCC1 [atRA, all trans retinoic acid]
Output line: 1

Input line: What value of RARγ activity ratio has been recorded for this entry: `O=C(O)c1ccc(NC(=O)c2cc(Cl)c(OC3CCCC3)c(C(F)(F)F)c2)cc1`
Output line: 688

Input line: What value of RARγ activity ratio has been recorded for this entry: `CCOc1c(Br)cc(C(=O)Nc2ccc(C(=O)O)c(C)c2)cc1Br`
Output line: 414

Input line: What value of RARγ activity ratio has been recorded for this entry: `O=C(O)c1ccc(NC(=O)c2cc(Cl)c(OCc3ccccc3)c(OCc3ccccc3)c2)cc1`
Output line: 3651

Input line: What value of RARγ activity ratio has been recorded for this entry: `CCOc1c(Br)cc(C(=O)Nc2ccc(C(=O)O)cc2)cc1Br`
Output line: 62370

Input line: What value of RARγ activity ratio has been recorded for this entry: `COc1c(Cl)cc(C(=O)Nc2ccc(C(=O)O)cn2)cc1C(F)(F)F`
Output line: 3521

Input line: What value of RARγ activity ratio has been recorded for this entry: `CCOc1c(Cl)cc(C(=O)Nc2ccc(C(=O)O)c(O)c2)cc1Cl`
Output line: 4920

Input line: What value of RARγ activity ratio has been recorded for this entry: `CCOc1cc(C(=O)Nc2ccc(C(=O)O)c(C)c2)cc(Cl)c1OC(C)C`
Output line: 11725

Input line: What value of RARγ activity ratio has been recorded for this entry: `O=C(O)c1ccc(NC(=O)c2cc(Cl)c(OC3CCC3)c(C(F)(F)F)c2)cc1`
Output line: 2438

Input line: What value of RARγ activity ratio has been recorded for this entry: `COc1c(Cl)cc(C(=O)Nc2ccc(C(=O)O)cc2)cc1Cl`
Output line: 5850

Input line: What value of RARγ activity ratio has been recorded for this entry: `CCOc1c(Cl)cc(C(=O)Nc2ccc(C(=O)O)nn2)cc1OC(C)C`
Output line: >56000

Input line: What value of RARγ activity ratio has been recorded for this entry: `CC(C)Oc1cc(C(=O)Nc2ccc(C(=O)O)cc2)cc(OC(C)C)c1OC(C)C`
Output line: 225

Input line: What value of RARγ activity ratio has been recorded for this entry: `CC(C)Oc1cc(C(=O)Nc2ccc(C(=O)O)c(O)c2)cc(OC(C)C)c1Br`
Output line: 792000

Input line: What value of RARγ activity ratio has been recorded for this entry: `COc1c(OC(C)C)cc(C(=O)Nc2ccc(C(=O)O)cc2)cc1OC(C)C`
Output line: 5328

Input line: What value of RARγ activity ratio has been recorded for this entry: `CCOc1c(Br)cc(C(=O)Nc2ccc(C(=O)O)c(C)c2)cc1C(F)(F)F`
Output line: 13333

Input line: What value of RARγ activity ratio has been recorded for this entry: `CC(C)Oc1cc(C(=O)Nc2ccc(C(=O)O)c(O)c2)cc(Cl)c1OC(C)C`
Output line: 75000
